- experimental system: RORγ-LBD (Homo sapiens, UniProt P51449)
- Construct: the glutathione-S-transferase (GST)-tagged RORγ-LBD produced in Sf9 cells; GST; made in house; host or cells: Sf9 cells
- Sequence (P51449 269-508 limits assumed): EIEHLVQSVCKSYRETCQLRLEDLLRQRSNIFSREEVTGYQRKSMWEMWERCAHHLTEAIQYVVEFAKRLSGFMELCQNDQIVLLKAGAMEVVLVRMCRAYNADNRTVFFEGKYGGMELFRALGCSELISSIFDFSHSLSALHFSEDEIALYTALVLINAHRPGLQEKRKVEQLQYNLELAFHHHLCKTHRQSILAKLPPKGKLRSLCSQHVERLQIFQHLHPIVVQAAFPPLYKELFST
- method notes: FRET-based CoR peptide recruitment assay (dual TR-FRET)
- Type: biochemical
- recorded conditions: TR-FRET, GST-tagged RORγ-LBD; compound T n = 1
outcome measure: pEC50
Give bare numbers, as −log10 of the molar value.

Entry `COc1ccc(-c2c(-c3nc(CC(=O)NCC4CCOCC4)cs3)cnn2C(C)(C)C)cc1` : pEC50 on RORγ-LBD (Homo sapiens, UniProt P51449) = 6.60

###

- experimental system: UniProtKB P51449
- Sequence (P51449 1-518): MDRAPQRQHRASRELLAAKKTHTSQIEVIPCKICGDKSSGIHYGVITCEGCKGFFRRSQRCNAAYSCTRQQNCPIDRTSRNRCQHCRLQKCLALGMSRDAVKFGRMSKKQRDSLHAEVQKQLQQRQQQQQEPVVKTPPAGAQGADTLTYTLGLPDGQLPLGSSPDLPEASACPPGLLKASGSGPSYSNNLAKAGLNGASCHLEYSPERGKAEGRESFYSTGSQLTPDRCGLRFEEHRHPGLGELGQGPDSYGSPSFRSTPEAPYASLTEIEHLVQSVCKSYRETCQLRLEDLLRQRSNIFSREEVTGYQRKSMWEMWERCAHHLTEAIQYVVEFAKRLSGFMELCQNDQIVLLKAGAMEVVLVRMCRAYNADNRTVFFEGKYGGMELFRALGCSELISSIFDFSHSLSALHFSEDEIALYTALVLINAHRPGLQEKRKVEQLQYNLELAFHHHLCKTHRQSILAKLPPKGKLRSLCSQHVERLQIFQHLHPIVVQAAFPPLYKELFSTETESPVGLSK
- method notes: Human RORγ luciferase (LUC) reporter assay
- recorded conditions: luciferase reporter assay; means ± SE (n = 2–3)
outcome measure: pEC50
Give bare numbers, as −log10 of the molar value.

Reported pEC50 for `COc1ccc(-c2c(-c3nc(CC(=O)NCC4CCOCC4)cs3)cnn2C(C)(C)C)cc1` was 6.36

Cited source: paper PMC6255837
